Test system: IGF1R mRNA
Assay Summary: Oligonucleotide scanning array hybridisation with labelled transcript
Type: binding, human
Measurement Parameters: scanning array probed with labelled IGF1R mRNA
Reported Hyb intensity values for a set of substances

Some solved entries appear below for comparison.
ASO4: phosphorothioate antisense oligonucleotide GCGGTAGTTGTACTCATTGT, SEQ ID NO:13 (DNA, all phosphorothioate, methylation of C not given here) :: >33,162
ASO6: phosphorothioate antisense oligonucleotide CTTATTCCCCACAATGTA, SEQ ID NO:17; poorly hybridising comparison (DNA, all phosphorothioate, methylation of C not given here) :: 560
ASO5: phosphorothioate antisense oligonucleotide GTGGTCCAGCAGCGGTAGTT, SEQ ID NO:15 (DNA, all phosphorothioate, methylation of C not given here) :: >4150
ASO3: phosphorothioate antisense oligonucleotide ATTGTTGATGGTGGTCTTCT, SEQ ID NO:11 (DNA, all phosphorothioate, methylation of C not given here) :: >7048
15mer: 15mer sequence described by Wraight et al. which falls within the region 537-685, gtgcagcagcggtag (DNA GTGCAGCAGCGGTAG; further chemistry not given here) [reference compound] :: 1695

As a next step, examine the substance that follows.
Give Hyb intensity for ASO2/18mer: phosphorothioate antisense oligonucleotide GGTCTTCTCACACATCGG, SEQ ID NO:6 (DNA, all phosphorothioate, methylation of C not given here)
56,026

====

Test system: IGF1R
Assay Summary: IGF1R level by immunoblotting in transfected MDA-231 cells
Format: cell-based, human
Measurement Parameters: MDA-231 cells, 30 nM ASO, 48 hr, vs scrambled control
Description: The human and murine cell lines used in this study were cultured in RPMI 1640 plus 10% FCS at 37° C. in a humidified atmosphere of 5% CO2. The cultures were negative when tested for Mycoplasma infection. […] After 48 hr incubation effects on IGF1R and IR expression were determined by immunoblotting. […] IGF1R expression was assessed by immunoblotting as previously described (Macaulay et al 2001). […] Activated IGF1R was detected by immunoprecipitation for phosphotyrosine (P-Tyr-100, Cell Signaling Technology). […]
Attribute Measured: IGF1R Protein Level (% control)

Some solved entries appear below for comparison.
ASO4: phosphorothioate antisense oligonucleotide GCGGTAGTTGTACTCATTGT, SEQ ID NO:13 (DNA, all phosphorothioate, methylation of C not given here) :: 73 ± 2 % control
ASO1 (20mer): phosphorothioate antisense oligonucleotide CGGCTTCTCCTCCATGGTCC, SEQ ID NO:2 (DNA, all phosphorothioate, methylation of C not given here) :: 66 ± 23 % control
ASO3: phosphorothioate antisense oligonucleotide ATTGTTGATGGTGGTCTTCT, SEQ ID NO:11 (DNA, all phosphorothioate, methylation of C not given here) :: 105 ± 18 % control

As a next step, examine the substance that follows.
Give IGF1R Protein Level (% control) for ASO2 (20mer): phosphorothioate antisense oligonucleotide TGGTCTTCTCACACATCGGC, SEQ ID NO:7 (DNA, all phosphorothioate, methylation of C not given here)
84 ± 11 % control

====

System: IGF1R
Assay Summary: IGF1R level by immunoblotting in transfected MDA-231 cells
Type: cell-based, human
Measurement Parameters: MDA-231 cells, 300 nM ASO, 48 hr, vs scrambled control
Attribute Measured: IGF1R Protein Level (% control)

Some solved entries appear below for comparison.
ASO3: phosphorothioate antisense oligonucleotide ATTGTTGATGGTGGTCTTCT, SEQ ID NO:11 (DNA, all phosphorothioate, methylation of C not given here) :: 104 ± 22 % control
ASO2 (20mer): phosphorothioate antisense oligonucleotide TGGTCTTCTCACACATCGGC, SEQ ID NO:7 (DNA, all phosphorothioate, methylation of C not given here) :: 47 ± 5 % control
ASO1 (20mer): phosphorothioate antisense oligonucleotide CGGCTTCTCCTCCATGGTCC, SEQ ID NO:2 (DNA, all phosphorothioate, methylation of C not given here) :: 38 ± 6 % control

As a next step, examine the substance that follows.
Give IGF1R Protein Level (% control) for ASO4: phosphorothioate antisense oligonucleotide GCGGTAGTTGTACTCATTGT, SEQ ID NO:13 (DNA, all phosphorothioate, methylation of C not given here)
49 ± 2 % control

====

System: IGF1R mRNA
Assay Summary: Oligonucleotide scanning array hybridisation with labelled transcript
Type: binding, human
Measurement Parameters: relative to the most strongly hybridising sequence on the array
Experimental: Scanning arrays complementary to the region of the IGF1R mRNA from position 537-685 were prepared using the standard techniques described in Southern E. M. et al., Nucleic Acids Res., 1994, 22(8): 1368-1373; and Sohail, M. and Southern, E. M. “Using oligonucleotide scanning arrays to find effective antisense reagents”, Methods in Molecular Biology, vol. […] • 2. Remove 1 μL for quantitation (see below). • 3. […] Save 1 μL of the purified transcript for quantitation (see below). • 5. […]
Reported Rel hyb intensity values for a set of substances
Provide a numeric answer; units are not to be included.

Some solved entries appear below for comparison.
15mer: 15mer sequence described by Wraight et al. which falls within the region 537-685, gtgcagcagcggtag (DNA GTGCAGCAGCGGTAG; further chemistry not given here) [reference compound] :: 0.03
ASO2/18mer: phosphorothioate antisense oligonucleotide GGTCTTCTCACACATCGG, SEQ ID NO:6 (DNA, all phosphorothioate, methylation of C not given here) :: 1.00

As a next step, examine the substance that follows.
Output reported Rel hyb intensity of the substance ASO6: phosphorothioate antisense oligonucleotide CTTATTCCCCACAATGTA, SEQ ID NO:17; poorly hybridising comparison (DNA, all phosphorothioate, methylation of C not given here) on IGF1R mRNA.
0.01

====

System: IGF1R mRNA
Assay Summary: Oligonucleotide scanning array hybridisation with labelled transcript
Type: binding, human
Measurement Parameters: relative to the most strongly hybridising sequence on the array
Reported Rel hyb intensity values for a set of substances

ASO4: phosphorothioate antisense oligonucleotide GCGGTAGTTGTACTCATTGT, SEQ ID NO:13 (DNA, all phosphorothioate, methylation of C not given here) :: >0.59
ASO5: phosphorothioate antisense oligonucleotide GTGGTCCAGCAGCGGTAGTT, SEQ ID NO:15 (DNA, all phosphorothioate, methylation of C not given here) :: >0.07

Give Rel hyb intensity for ASO3: phosphorothioate antisense oligonucleotide ATTGTTGATGGTGGTCTTCT, SEQ ID NO:11 (DNA, all phosphorothioate, methylation of C not given here)
>0.13

These data points were gathered from patent US20050255493A1.
